Each recorded value in this set is attributed to ChEMBL document CHEMBL5512637.

Experiment: Cytotoxicity against human L02 cells assessed as cell survival at 32 ug/ml by MTT assay relative to control
Format: toxicity, cell-based
Settings: at 32 µg/mL, read-out: Survival
PROPERTY_NAME: viability at 32 ug/ml

Tell me the measured viability at 32 ug/ml of CCCCCNC(=O)C[N+](C)(C)CCCCn1c(-c2ccc(N(C)C)cc2)nc2c3ccccc3c3ccccc3c21.[Br-] , please.
> 72.2%

---

Tested on: Staphylococcus aureus
Test: Antibacterial activity against methicillin-resistant Staphylococcus aureus clinical isolate M-4 incubated for 16 to 18 hrs CLSI based by microbroth dilution assay
Format: functional
Conditions: time 16-18 hrs
PROPERTY_NAME: MIC

The following compounds have reported results that may help.
# COMPOUND, MIC
measured = [
    ("CCCNC(=O)C[N+](C)(C)CCCCCn1c(-c2ccc(N(C)C)cc2)nc2c3ccccc3c3ccccc3c21.[Br-]", "4 mg/L"),
    ("CC(C)CN(CC(C)C)C(=O)C[N+](C)(C)CCCn1c(-c2ccc(N(C)C)cc2)nc2c3ccccc3c3ccccc3c21.[Br-]", "4 mg/L"),
    ("CCCCCNC(=O)C[N+](C)(C)CCCn1c(-c2ccc(N(C)C)cc2)nc2c3ccccc3c3ccccc3c21.[Br-]", "4 mg/L"),
    ("CC(C)CN(CC(C)C)C(=O)C[N+](C)(C)CCCCCn1c(-c2ccc(N(C)C)cc2)nc2c3ccccc3c3ccccc3c21.[Br-]", "1 mg/L"),
    ("CCCCCCNC(=O)C[N+](C)(C)CCCn1c(-c2ccc(N(C)C)cc2)nc2c3ccccc3c3ccccc3c21.[Br-]", "64 mg/L"),
    ("O=C1C(=O)c2ccccc2-c2ccccc21 [9,10-PHENANTHRENEQUINONE]", "4 mg/L"),
    ("CCCCCNC(=O)C[N+](C)(C)CCCCn1c(-c2ccccc2)nc2c3ccccc3c3ccccc3c21.[Br-]", "2 mg/L"),
    ("CCCN(CCC)C(=O)C[N+](C)(C)CCCn1c(-c2ccc(N(C)C)cc2)nc2c3ccccc3c3ccccc3c21.[Br-]", "32 mg/L"),
    ("CCCCCCNC(=O)C[N+](C)(C)CCCCCn1c(-c2ccc(N(C)C)cc2)nc2c3ccccc3c3ccccc3c21.[Br-]", "1 mg/L"),
    ("CCCCN(CCCC)C(=O)C[N+](C)(C)CCCCn1c(-c2ccc(N(C)C)cc2)nc2c3ccccc3c3ccccc3c21.[Br-]", "1 mg/L"),
]

Tell me the measured MIC of CCN(CC)C(=O)C[N+](C)(C)CCCCn1c(-c2ccc(N(C)C)cc2)nc2c3ccccc3c3ccccc3c21.[Br-] , please.
16 mg/L

Tell me the measured MIC of CCNC(=O)C[N+](C)(C)CCCCCn1c(-c2ccc(N(C)C)cc2)nc2c3ccccc3c3ccccc3c21.[Br-] , please.
32 mg/L

Tell me the measured MIC of CCCN(CCC)C(=O)C[N+](C)(C)CCCCn1c(-c2ccc(N(C)C)cc2)nc2c3ccccc3c3ccccc3c21.[Br-] , please.
4 mg/L

---

Tested on: Escherichia coli
Experiment: Antibacterial activity against Escherichia coli ATCC 25922 incubated for 16 to 18 hrs CLSI based by microbroth dilution assay
Assay type: functional
Conditions: time 16-18 hrs
PROPERTY_NAME: MIC (µg/mL)
// units = µg/mL; emit number, no label

The following molecules have reported results that may help.
# MOL, MIC, µg/mL
measured = [
    ("CCCCCNC(=O)C[N+](C)(C)CCCCCn1c(-c2ccc(N(C)C)cc2)nc2c3ccccc3c3ccccc3c21.[Br-]", 64),
    ("CCCNC(=O)C[N+](C)(C)CCCCn1c(-c2ccc(N(C)C)cc2)nc2c3ccccc3c3ccccc3c21.[Br-]", 64),
    ("CCCN(CCC)C(=O)C[N+](C)(C)CCCCn1c(-c2ccc(N(C)C)cc2)nc2c3ccccc3c3ccccc3c21.[Br-]", 128),
    ("CCN(CC)C(=O)C[N+](C)(C)CCCCCn1c(-c2ccc(N(C)C)cc2)nc2c3ccccc3c3ccccc3c21.[Br-]", 128),
    ("C[C@@H](O)[C@H]1C(=O)N2C(C(=O)O)=C(S[C@@H]3CN[C@H](C(=O)N(C)C)C3)[C@H](C)[C@H]12", 0.063),
]

Tell me the measured MIC of CCCN(CCC)C(=O)C[N+](C)(C)CCCCCn1c(-c2ccc(N(C)C)cc2)nc2c3ccccc3c3ccccc3c21.[Br-] , please.
128

Tell me the measured MIC of CC(C)CN(CC(C)C)C(=O)C[N+](C)(C)CCCn1c(-c2ccc(N(C)C)cc2)nc2c3ccccc3c3ccccc3c21.[Br-] , please.
128

Tell me the measured MIC of CCNC(=O)C[N+](C)(C)CCCCCn1c(-c2ccc(N(C)C)cc2)nc2c3ccccc3c3ccccc3c21.[Br-] , please.
128

Tell me the measured MIC of CCCCCNC(=O)C[N+](C)(C)CCCn1c(-c2ccc(N(C)C)cc2)nc2c3ccccc3c3ccccc3c21.[Br-] , please.
64
